experimental_target: adrenergic β-receptor (Rattus norvegicus, UniProt P18090)
Construct: studied in reserpinized, vagotomized rats; from tissue; host or cells: heart in the living, anaesthetized rat (in vivo heart rate)
Sequence (P18090 whole entry): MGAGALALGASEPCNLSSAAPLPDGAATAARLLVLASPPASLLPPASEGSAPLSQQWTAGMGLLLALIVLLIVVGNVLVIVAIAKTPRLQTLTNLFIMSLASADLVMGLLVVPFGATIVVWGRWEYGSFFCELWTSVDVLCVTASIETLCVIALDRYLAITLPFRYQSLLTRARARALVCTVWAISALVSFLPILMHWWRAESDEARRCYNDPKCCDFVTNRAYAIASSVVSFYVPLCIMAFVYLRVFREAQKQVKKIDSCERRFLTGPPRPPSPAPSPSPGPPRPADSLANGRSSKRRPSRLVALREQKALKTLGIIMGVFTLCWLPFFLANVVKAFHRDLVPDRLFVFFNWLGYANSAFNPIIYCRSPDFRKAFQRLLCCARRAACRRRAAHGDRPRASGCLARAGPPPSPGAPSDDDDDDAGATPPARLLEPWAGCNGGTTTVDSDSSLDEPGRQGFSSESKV
protocol_description: Blockade of isoproterenol-induced tachycardia in reserpinized, vagotomized rats (Experiment 3)
Format: in vivo
condition_summary: 0.64 mg/kg, i.v., cumulative; Control = 100
metric_name: Res: Response (percent increase of heart rate induced by 0.1 μg/kg l-isoproterenol) (%)
Just the number in %, nothing appended.

CC(C)NCC(O)COc1cccc2c1CCC2 (stereo not shown) :: 12

Query: State the recorded Res: Response (percent increase of heart rate induced by 0.1 μg/kg l-isoproterenol) for this entry: C=CCc1ccccc1OCC(O)CNC(C)C (stereo not shown) [alprenolol (Aptin), alprenolol, reference compound]
Response: 3

Query: Quick one: Res: Response (percent increase of heart rate induced by 0.1 μg/kg l-isoproterenol) for CCC(C)NCC(O)COc1cccc2c1C=CC2 (stereo not shown) ?
Response: 17

Query: Which Res: Response (percent increase of heart rate induced by 0.1 μg/kg l-isoproterenol) is listed for CC(C)NCC(O)COc1cccc2c1C=CC2 (racemic) ?
Response: 5

----------
experimental_target: adrenergic β-receptor (Rattus norvegicus)
Construct: studied in reserpinized, vagotomized rats; from tissue; host or cells: heart in the living, anaesthetized rat (in vivo heart rate)
protocol_description: Blockade of isoproterenol-induced tachycardia in reserpinized, vagotomized rats (Experiment 3)
Assay type: in vivo
condition_summary: 0.04 mg/kg, i.v., cumulative; Control = 100
metric_name: Res: Response (percent increase of heart rate induced by 0.1 μg/kg l-isoproterenol)
Just so you know, I need the unit written after the number.

Query: Look at this molecule and give its reported Res: Response (percent increase of heart rate induced by 0.1 μg/kg l-isoproterenol). CC(C)NCC(O)COc1cccc2c1C=CC2 (racemic)
Response: 50±2%

----------
BHR: Basic heart rate (just before administration of l-isoproterenol) values for the molecules below.
System: resting heart rate
protocol_description: Effect on resting (basic) heart rate in reserpinized, vagotomized rats (Experiment 3)
Type: in vivo, rat
condition_summary: 0.64 mg/kg, i.v., cumulative
Write it as a number; the unit beat per minute goes unstated.

Some entries whose results are on file:
CC(C)NCC(O)COc1cccc2c1CCC2 (stereo not shown) :: 238
C=CCc1ccccc1OCC(O)CNC(C)C (stereo not shown) [alprenolol (Aptin), alprenolol, reference compound] :: 262
CC(C)NCC(O)COc1cccc2c1C=CC2 (racemic) :: 245

Next, consider the following molecule.
Query: Given the molecule CCC(C)NCC(O)COc1cccc2c1C=CC2 (stereo not shown) , what is its reported BHR: Basic heart rate (just before administration of l-isoproterenol)?
Response: 236

----------
protocol_description: Acute intravenous toxicity in white mice
condition_summary: mouse, in vivo, injected intravenously
metric_name: LD50

Query: Looking for the measured LD50 of CC(C)NCC(O)COc1cccc2c1C=CC2 (racemic) , can you help?
Response: 25 mg/kg

----------
experimental_target: adrenergic β-receptor (Rattus norvegicus)
Construct: studied in reserpinized, vagotomized rats; from tissue; host or cells: heart in the living, anaesthetized rat (in vivo heart rate)
protocol_description: Blockade of isoproterenol-induced tachycardia in reserpinized, vagotomized rats (Experiment 3)
Format: in vivo
condition_summary: 0.16 mg/kg, i.v., cumulative; Control = 100
metric_name: Res: Response (percent increase of heart rate induced by 0.1 μg/kg l-isoproterenol)
I'd appreciate it if you wrote the number followed by its unit.

Query: Any idea what its Res: Response (percent increase of heart rate induced by 0.1 μg/kg l-isoproterenol) is? The compound is CCC(C)NCC(O)COc1cccc2c1C=CC2 (stereo not shown)
Response: 40±5%

Query: Any idea what its Res: Response (percent increase of heart rate induced by 0.1 μg/kg l-isoproterenol) is? The compound is C=CCc1ccccc1OCC(O)CNC(C)C (stereo not shown) [alprenolol (Aptin), alprenolol, reference compound]
Response: 17±3%

Query: What value of measured Res: Response (percent increase of heart rate induced by 0.1 μg/kg l-isoproterenol) is listed for CC(C)NCC(O)COc1cccc2c1C=CC2 (racemic) ?
Response: 23±2%

Query: Dear colleague, I am looking for the recorded Res: Response (percent increase of heart rate induced by 0.1 μg/kg l-isoproterenol) of the following compound: CC(C)NCC(O)COc1cccc2c1CCC2 (stereo not shown)
Response: 33±14%

----------
experimental_target: adrenergic β-receptor (Rattus norvegicus)
Construct: studied in reserpinized, vagotomized rats; from tissue; host or cells: heart in the living, anaesthetized rat (in vivo heart rate)
protocol_description: Blockade of isoproterenol-induced tachycardia in reserpinized, vagotomized rats (Experiment 3)
Type: in vivo
condition_summary: 0.04 mg/kg, i.v., cumulative; Control = 100
metric_name: Res: Response (percent increase of heart rate induced by 0.1 μg/kg l-isoproterenol) (%)
Record the value in %, omitting the unit from your answer.

Query: Sample CC(C)NCC(O)COc1cccc2c1CCC2 (stereo not drawn) — what was its Res: Response (percent increase of heart rate induced by 0.1 μg/kg l-isoproterenol)?
Response: 54

Query: Record request: Res: Response (percent increase of heart rate induced by 0.1 μg/kg l-isoproterenol) value, item CCC(C)NCC(O)COc1cccc2c1C=CC2 (stereo not drawn)
Response: 65

Query: Query (compound): C=CCc1ccccc1OCC(O)CNC(C)C (stereo not drawn) [alprenolol (Aptin), alprenolol, reference compound] ; field requested: Res: Response (percent increase of heart rate induced by 0.1 μg/kg l-isoproterenol)
Response: 44
